Experiment: Dog PK study of C1 (S) enantiomer, single oral dose, plasma and whole blood by chiral LC-MS/MS
Assay type: in vivo, beagle dogs
Settings: beagle, dog, plasma, po, 10 mg/kg; oral gavage 10 mg/kg
Method: This study assessed the in vivo pharmacokinetic (PK) behavior of a single oral dose of the C1 (S) enantiomer in beagle dogs (Charles River study# 20104466). Solutions of C1 (S) enantiomer were dosed by oral gavage (10mg/kg) to a group of dogs (n=3). […] Test article concentrations in plasma and whole blood were determined using liquid chromatography tandem mass spectrometry (LC-MS/MS). […] In this report, PK calculations were normalized to the measured dose solution concentrations. […]
endpoint.name: CL/F (mL/min/kg)
# number only, unit mL/min/kg dropped from output

The molecule listed as O=C(CC(F)(F)F)N1CC2(C1)OCc1cc(C3=NS[C@@](c4cc(Cl)c(F)c(Cl)c4)(C(F)(F)F)C3)ccc12 [C1 (S) enantiomer] shows CL/F equal to 0.833
